system: HOP-62 NSCLC; experiment: NCI tumour cell line growth inhibition, 48 h
*1 amine or outer side, *2 acyl side, *3 side chain or, on linkers, in order; H or OH if unused. Where a SMILES comes first, the peptide text is derived from it. The star is where a group is joined. γGlu = O=C(O)[CH](CCC(=O)[*:2])N[*:1]; NHOH = ON*
QUANTITY_NAME: TGI

Below, each entry is followed by its recorded TGI result.
O=c1c2ccccc2nc2sc(/N=C/C=C/c3ccccc3)nn12 ... > 100 µM
COc1ccc2nc3c([N+](=O)[O-])ccc(NCCN(C)C)c3c(NCCN(C)C)c2c1 ... 2.73 µM
Cc1c(O)c(Br)c(C)c(O)c1Br (tested in a mixture with another compound) ... 40.3 µM

Problem: Value wanted: TGI (HOP-62 NSCLC) of entry `COC(=O)NC(=O)c1cn(C2CCCCC2)c(=O)[nH]c1=O`
Result: > 100 µM

Problem: Query TGI on HOP-62 NSCLC for C=C(C)CC(C)(c1cc2ccccc2n1C)N1CCOCC1 (stereo not drawn)
Result: > 100 µM

Problem: Record `Cc1ccc(/C=C2\NC(=S)N(CN3CCCCC3)C2=O)cc1` : what is its TGI with HOP-62 NSCLC?
Result: > 100 µM

Problem: What value of TGI on HOP-62 NSCLC does Cc1ccc(N=NC(C2=NC(=O)CS2)c2nc3ccccc3[nH]2)cc1 (stereo not drawn) have?
Result: 69.3 µM

Problem: // fetch HOP-62 NSCLC TGI for Cc1c(N=Nc2ccc(Cl)cc2)c(C)n(C2OC(CO)C(O)C(O)C2O)c(=S)c1C#N (stereo not drawn)
Result: 36.8 µM

Problem: Look up TGI with HOP-62 NSCLC for this molecule: CCOC(=O)CNC(=O)C(CCC(=O)NO)NC(=O)CCC(N)C(=O)O (stereo not drawn) (γGlu-Glu(NHOH)-Gly-OEt; configuration not given here)
Result: > 100 µM

Problem: Which measured TGI belongs to `O=C(N/N=C/c1ccc(Cl)cc1)c1ccccc1Nc1ccccc1C(=O)N/N=C/c1ccc(Cl)cc1` , tested on HOP-62 NSCLC?
Result: > 100 µM

Problem: What is its TGI for HOP-62 NSCLC? Entry: CCOC(=O)C(NC(=O)c1cccc(Cl)c1)(N1CCN(c2cc3c(cc2F)c(=O)c(C(=O)O)cn3C2CC2)CC1)C(F)(F)F (stereo not drawn)
Result: 50 µM

Problem: For the record `CCSc1nnc(-c2ccccc2)nc1Cc1ccc(OC)cc1` , what value of TGI is listed for HOP-62 NSCLC?
Result: > 100 µM

Problem: Query the reported TGI for HOP-62 NSCLC; item: `COc1cc(-c2nn(-c3cccc(NC(=O)CCN4CCN(C)CC4)c3)cc2-c2ccncc2)ccc1Cl`
Result: 4.38 µM

* * *

Listed here are molecules together with their documented GI50.
tested on: SN12C renal; test: NCI tumour cell line growth inhibition, 48 h

Problem: What does the data say about its GI50? Entry: `O=C(c1ccco1)c1c(C(F)(F)F)n([O-])c2ccc(F)cc2[n+]1=O`
Result: 1330 nM

Problem: Quick check: GI50 of `CC(=O)C(C=O)C(C)=O.CC(=O)CC(C)=O.CC(=O)CC(C)=O.[Ru]` ?
Result: 1970 nM

Problem: Which measured GI50 value corresponds to `O=C1NC(=O)C(c2c[nH]c3ccccc23)=C1c1ccccc1` ?
Result: > 25000 nM

* * *

tested on: HS 578T breast; assay: NCI tumour cell line growth inhibition, 48 h; in the data active = GI50 below about 0.43 µM; inactive = the rest
// allowed return values: active, inactive

Worked cases, answers included:
N=C1C(c2nc3ccccc3s2)=C(O)CN1c1cc(Cl)cc(Cl)c1 ... inactive
COc1ccc(/C=C2/CN(CCC#N)C/C(=C\c3ccc(OC)cc3)C2=O)cc1 ... inactive
CCCc1n(Cc2ccc3ccccc3n2)cc[n+]1Cc1ccc2ccccc2n1 ... inactive

Problem: Each compound tested received a call. Report the one for `N=C(N)c1ccc(-c2ccc(-c3ccc(Cl)c(Cl)c3)o2)cc1` .
Result: inactive

Problem: Could you kindly confirm the outcome this assay logged for `COc1ccc2c(c1)C(=O)c1c-2c(N2CCN(C(=O)CCNCCNCCO)CC2)nc2ccccc12` ?
Result: inactive

Problem: // return assay outcome for Cc1cc2c(cc1Cl)SC(C(=O)c1ccc(Cl)c(Cl)c1)NS2(=O)=O (stereo not given)
Result: inactive

Problem: For `O=C(Nc1ccccc1)Nc1ccc(Cl)c(Cl)c1` , what call appears in the results of this test?
Result: inactive

Problem: Hi team, can someone confirm the assay call for `CC/C(=N/N=C(N)N)c1ccc(NC(=O)Nc2ccc(/C(CC)=N/N=C(N)N)cc2)cc1` ?
Result: inactive

Problem: Dear colleague, could you share the recorded outcome for `O=C(O)c1cn(C2CC2)c2cc(N3CCN(Cc4ccc5ccccc5c4O)CC3)c(F)cc2c1=O` when you have a moment?
Result: inactive

Problem: Answer briefly: the call reported for `Cc1cn2c(/C=C3/C(=O)Nc4ccc(Cl)cc43)c(C)nc2s1` in this assay.
Result: active

* * *

// reported TGI for each item listed
test system: SK-OV-3 ovarian; experiment: NCI tumour cell line growth inhibition, 48 h

Observe how each entry below is paired with its result.
Cn1cnc2c1c(=O)n(CCNCCO)c(=O)n2C ... > 100 µM
O=C(O)COc1ccc(C(=O)/C(SS/C(C(=O)c2ccc(OCC(=O)O)c(Cl)c2Cl)=C2\C=C(c3ccccc3Cl)SS2)=C2/C=C(c3ccccc3Cl)SS2)c(Cl)c1Cl ... > 100 µM
O=c1c2cc(S(=O)(=O)O)ccc2nc(COc2ccc(Oc3ccc(Cl)cc3Cl)cc2)n1C(=S)Nc1ccc(Cl)cc1 ... 49 µM
Cc1ccc(/C=C2\NC(=S)N(CN3CCCCC3)C2=O)cc1 ... > 100 µM
Cc1c/c(=N/NC(=O)c2ccncc2)n2nc(N)sc2n1 ... > 100 µM
COc1ccc(C(=C2C(=O)N(c3ccccc3)C(=O)C2=C(C)C)c2ccc(OC)cc2)cc1 ... > 56.1 µM
N#C/C(C(=O)Nc1ccc(Cl)cc1)=C(/N)N1CCOCC1 ... > 100 µM
O=C1/C(=C/c2ccccc2[N+](=O)[O-])COc2ccc(O)c(O)c21 ... 14.3 µM

Problem: Give the measured TGI of `COc1ccc(-c2nc3sccn3c2-c2ccnc(NCCCNS(=O)(=O)c3ccc(F)cc3)n2)cc1` .
Result: > 100 µM

* * *

Entries annotated with measured GI50
test system: OVCAR-3 ovarian; assay: NCI tumour cell line growth inhibition, 48 h

# count of solved cases: 8
N=C1/C(=C2\Nc3ccccc3S2)CC(=O)N1c1ccc(SC(F)F)cc1 ... 17.1 µM
Cc1[nH]n(-c2cccc(Cl)c2)c(=O)c1/C=C1\C=c2ccccc2=CC1=O ... 59.5 µM
COC1=CC2CCN3Cc4cc5c(cc4C(C1O)C23)OCC5 (stereo unspecified) ... 1.78 µM
FC(F)(F)c1ccc(NCc2nc3ccccc3[nH]2)cc1 ... 21.9 µM
COc1cc(Cn2c(SCC(=O)Nc3ccc(Cl)cc3)nc3ccccc3c2=O)cc(OC)c1OC ... 7.86 µM
CCc1ccc2c(c1)C(=O)c1c-2n(CCCN)c(=O)c2cc([N+](=O)[O-])ccc12 ... 1.58 µM
Cc1cc2c(cc1Cl)SC(C(=O)c1ccc(Cl)c(Cl)c1)NS2(=O)=O (stereo unspecified) ... 40.7 µM
C[C@H](c1ccccc1)N(CCC(=O)O)C(=O)CCN(C(=O)CCN(C(=O)CCN[C@H](C)c1ccccc1)[C@H](C)c1ccccc1)[C@H](C)c1ccccc1 ... > 100 µM

Problem: Which GI50 value belongs to CCN1C(=O)N(CC)C2C1NN=c1s/c(=C\c3ccc(OC)cc3)c(=O)n12 (stereo unspecified) ?
Result: 0.114 µM

Problem: I would be grateful if you could share the reported GI50 for `COc1ccc(/C=C2/CN(CCC#N)C/C(=C\c3ccc(OC)cc3)C2=O)cc1` .
Result: 2.79 µM

Problem: Find the recorded GI50 belonging to Cn1cc(C2=C(c3c(S(C)=O)n(C)c4ccccc34)C(=O)NC2=O)c2ccccc21 (stereo unspecified) and report it.
Result: 6.31 µM

* * *

tested on: PC-3 prostate; assay: NCI tumour cell line growth inhibition, 48 h
Catalogue of TGI readings, one per entry.

Please review the entries below; each comes with its answer.
COc1cc([N+](=O)[O-])ccc1N1C(=O)C2c3[nH]c4ccccc4c3C3CCC(C(C)(C)C)CC3C2C1=O (stereo unspecified) ... > 100 µM
COc1ccc(/C=C2/CN(CCC#N)C/C(=C\c3ccc(OC)cc3)C2=O)cc1 ... > 100 µM
CC1(C)OC(=O)C(=Cc2ccc([N+](=O)[O-])s2)C(=O)O1 ... 38.1 µM
CCO[C@]12CCC[C@H]1[C@@H]1C(=O)c3ccccc3C(=O)C1=C(C)O2 ... > 100 µM
COc1cc(-c2nn(-c3cccc(NC(=O)CCN4CCN(C)CC4)c3)cc2-c2ccncc2)ccc1Cl ... 3.68 µM
Cc1cccc(/C=N/NC(=S)N(C)CCc2ccccn2)n1 ... > 100 µM
CC/C(=N/N=C(N)N)c1ccc(NC(=O)Nc2ccc(/C(CC)=N/N=C(N)N)cc2)cc1 ... 33.7 µM
COc1ccc(C(=C2C(=O)N(c3ccccc3)C(=O)C2=C(C)C)c2ccc(OC)cc2)cc1 ... > 40.1 µM
C=C1C(=O)C2(C)OC2(C)C1C(=O)O (stereo unspecified) ... > 100 µM
CN1CCN(c2ccc(Nc3ncc4cc5n(c4n3)C3(CCCCC3)CNC5=O)nc2)CC1 ... 28.9 µM

Problem: For the compound shown here, `COC(=O)[C@]12CC[C@@H](C)[C@H](C)[C@@H]1C1=CC[C@@H]3[C@@]4(C)CC(=O)[C@H](O)[C@@](C)(CO)[C@@H]4C(=O)C[C@@]3(C)[C@]1(C)CC2` , give the reported TGI.
Result: 15 µM

Problem: Which TGI value is on record for `COc1c(Br)cc(/C=C(\C#N)c2ccccn2)cc1Br` ?
Result: > 100 µM

Problem: # lookup: TGI of COCOc1c(C(OCOC)c2cnc(Sc3ccccc3)n2C)ccc(OC)c1OC (stereo unspecified)
Result: > 100 µM

Problem: Query: TGI; subject: `Nc1c(Br)cc(-c2nc3ccccc3s2)cc1Br`
Result: > 100 µM

Problem: Any idea what TGI was measured for CC1OC(OCC2OC(Oc3ccc(C4CC(=O)c5c(O)cc(O)cc5O4)cc3O)C(O)C(O)C2O)C(O)C(O)C1O (stereo unspecified) ?
Result: > 100 µM

Problem: // TGI lookup, key: `COCCOC1=C(Cl)C(=O)c2c(O)ccc(O)c2C1=O`
Result: 13 µM

Problem: Look up TGI: CCOP(=O)(OCC)C(Nc1cccc(F)c1)c1ccc(N(C)C)cc1 (stereo unspecified)
Result: > 100 µM

Problem: Looking for the measured TGI of COc1cc(NC(C)CCCN2C(=O)c3ccccc3C2=O)c2ncccc2c1OC (stereo unspecified) , can you help?
Result: 71.1 µM

Problem: Endpoint output: TGI of `Nc1nc(OCC2CCCCC2)c2[nH]cnc2n1` . Value?
Result: 41.2 µM

Problem: Entry `COc1ccc2nc3c([N+](=O)[O-])ccc(NCCN(C)C)c3c(NCCN(C)C)c2c1` : reported TGI = ?
Result: 2.02 µM
